In this section we review reported pEC50 values for a set of compounds.
# tested_target: GluN1/GluN2A NMDARs (Rattus norvegicus, UniProt P35439+Q00959)
# Construct: expressed in transfected cells; host or cells: HEK293
# Sequence (Q00959 23-1464, other chains not shown): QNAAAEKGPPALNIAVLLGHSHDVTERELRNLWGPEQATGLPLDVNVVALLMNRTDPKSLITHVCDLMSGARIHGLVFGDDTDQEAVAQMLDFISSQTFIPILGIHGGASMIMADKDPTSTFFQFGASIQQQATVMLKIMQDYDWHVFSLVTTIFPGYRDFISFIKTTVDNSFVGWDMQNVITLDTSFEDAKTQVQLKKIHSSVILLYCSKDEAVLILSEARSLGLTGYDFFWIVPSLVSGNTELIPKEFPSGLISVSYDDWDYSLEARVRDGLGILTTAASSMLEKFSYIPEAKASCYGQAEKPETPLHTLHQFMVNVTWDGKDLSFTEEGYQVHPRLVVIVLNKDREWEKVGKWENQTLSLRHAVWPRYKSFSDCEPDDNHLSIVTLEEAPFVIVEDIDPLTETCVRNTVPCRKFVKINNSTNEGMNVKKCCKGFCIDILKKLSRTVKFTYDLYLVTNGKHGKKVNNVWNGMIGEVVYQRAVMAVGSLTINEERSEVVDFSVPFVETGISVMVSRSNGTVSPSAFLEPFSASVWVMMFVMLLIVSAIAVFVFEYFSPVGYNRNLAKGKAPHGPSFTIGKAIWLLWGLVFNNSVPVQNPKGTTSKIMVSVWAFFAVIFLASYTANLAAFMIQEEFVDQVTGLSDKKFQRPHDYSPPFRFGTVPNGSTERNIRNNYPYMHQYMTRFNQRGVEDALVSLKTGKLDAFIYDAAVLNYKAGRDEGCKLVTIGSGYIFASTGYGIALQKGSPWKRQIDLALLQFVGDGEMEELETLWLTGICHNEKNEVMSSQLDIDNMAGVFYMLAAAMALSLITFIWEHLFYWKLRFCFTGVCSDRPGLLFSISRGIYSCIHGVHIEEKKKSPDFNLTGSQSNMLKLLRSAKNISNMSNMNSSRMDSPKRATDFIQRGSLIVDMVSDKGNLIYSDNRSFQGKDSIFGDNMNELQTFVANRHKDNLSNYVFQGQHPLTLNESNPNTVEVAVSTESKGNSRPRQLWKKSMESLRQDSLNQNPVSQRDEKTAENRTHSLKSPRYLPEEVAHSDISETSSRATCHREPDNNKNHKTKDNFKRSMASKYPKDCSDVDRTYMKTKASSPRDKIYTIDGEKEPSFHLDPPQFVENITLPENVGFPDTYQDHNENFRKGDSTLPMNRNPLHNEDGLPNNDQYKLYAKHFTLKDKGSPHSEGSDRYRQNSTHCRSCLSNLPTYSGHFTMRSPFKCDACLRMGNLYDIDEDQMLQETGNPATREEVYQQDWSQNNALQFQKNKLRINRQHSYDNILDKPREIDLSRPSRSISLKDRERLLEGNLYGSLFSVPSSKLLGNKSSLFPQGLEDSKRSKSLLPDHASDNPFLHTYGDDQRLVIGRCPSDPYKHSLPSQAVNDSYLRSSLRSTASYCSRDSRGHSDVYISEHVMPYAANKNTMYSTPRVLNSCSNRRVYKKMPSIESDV
# experiment_summary: Whole-cell patch clamp recordings in HEK293 cells transfected with GluN1/GluN2A
# Type: cell-based
# assay_context: Table 1; potentiation; read-out: EC50
pEC50: −log10 of the molar value.

[
  {
    "structure_string": "CCOc1cc(Br)cc(/C=N/NC(=O)c2ccccc2Br)c1O",
    "pEC50": 6.10
  },
  {
    "structure_string": "CCOc1cc(Cl)c(Cl)c(/C=N/NC(=O)c2ccc(OC)cc2)c1O",
    "pEC50": 7.00
  },
  {
    "structure_string": "CCOc1cc(Br)cc(/C=N/NC(=O)c2ccc(C)cc2Cl)c1O",
    "pEC50": 6.60
  },
  {
    "structure_string": "CCOc1cc(Cl)c(Cl)c(/C=N/NC(=O)c2ccccc2Br)c1O",
    "pEC50": 6.57
  },
  {
    "structure_string": "CCOc1cc(Cl)c(Cl)c(/C=N/NC(=O)c2cccc(Br)c2)c1O",
    "pEC50": 6.60
  },
  {
    "structure_string": "CCOc1cc(Cl)c(Cl)c(/C=N/NC(=O)c2ccc(C)cc2Cl)c1O",
    "pEC50": 6.82
  },
  {
    "structure_string": "COc1cc(Br)c(Br)c(/C=N/NC(=O)c2ccc(C(C)(C)C)cc2)c1O",
    "pEC50": 6.66
  },
  {
    "structure_string": "CCOc1cc(Cl)c(Cl)c(/C=N/NC(=O)c2cc(Cl)ccc2Br)c1O",
    "pEC50": 6.72
  },
  {
    "structure_string": "CCOc1cc(Cl)c(Cl)c(/C=N/NC(=O)c2cccc(Br)c2C)c1O",
    "pEC50": 6.60
  },
  {
    "structure_string": "COc1cc(Br)c(Br)c(/C=N/NC(=O)c2ccccc2)c1O",
    "pEC50": 7.05
  },
  {
    "structure_string": "CCOc1cc(Br)cc(/C=N/NC(=O)c2cccc(Br)c2)c1O",
    "pEC50": 6.72
  }
]

----------
# experiment_summary: Pharmacokinetics after i.v. injection, CSF and serum by HPLC-ECD
# Assay type: in vivo, rat
# assay_context: Sprague-Dawley, rat, CSF, iv, rats; estimated
readout_type: half-life (h)

[
  {
    "compound": "CCOc1cc(Cl)c(Cl)c(/C=N/NC(=O)c2ccccc2Br)c1O [Npam43]",
    "readout_type": "half-life",
    "unit_abbreviation": "h",
    "measurement": 2.95
  }
]

----------
# tested_target: GluN1/GluN2A NMDARs (Rattus norvegicus, UniProt P35439+Q00959)
# Construct: expressed in transfected cells; host or cells: HEK293
# experiment_summary: Whole-cell patch clamp recordings in HEK293 cells transfected with GluN1/GluN2A
# Format: cell-based
# assay_context: Table 1; positive modulation of GluN1/GluN2A NMDARs; concentration not given
In this section we review reported Normalized Potentiation values for a set of compounds.
readout_type: Normalized Potentiation

[
  {
    "compound": "CCOc1cc(Br)cc(/C=N/NC(=O)c2cccc(Br)c2)c1O",
    "readout_type": "Normalized Potentiation",
    "measurement": "426.44 ± 87.65%"
  },
  {
    "compound": "CCOc1cccc(/C=N/NC(=O)c2ccccc2Br)c1O",
    "readout_type": "Normalized Potentiation",
    "measurement": "15.11 ± 8.78%"
  },
  {
    "compound": "CCOc1cc([N+](=O)[O-])cc(/C=N/NC(=O)c2cc(Cl)ccc2O)c1O",
    "readout_type": "Normalized Potentiation",
    "measurement": "61.57 ± 8.15%"
  },
  {
    "compound": "COc1cc(Br)c(Br)c(/C=N/NC(=O)c2ccccc2)c1O",
    "readout_type": "Normalized Potentiation",
    "measurement": "441.71 ± 65.24%"
  },
  {
    "compound": "COc1cc(Br)c(Br)c(/C=N/NC(=O)c2cccnc2)c1O",
    "readout_type": "Normalized Potentiation",
    "measurement": "51.95 ± 11.29%"
  },
  {
    "compound": "CCOc1cc(Br)cc(/C=N/NC(=O)c2ccc3c(c2)OCCO3)c1O",
    "readout_type": "Normalized Potentiation",
    "measurement": "87.00 ± 6.48%"
  },
  {
    "compound": "COc1cc(Br)c(Br)c(/C=N/NC(=O)c2ccccc2Cl)c1O",
    "readout_type": "Normalized Potentiation",
    "measurement": "284.50 ± 85.20%"
  },
  {
    "compound": "CCOc1cc(Cl)c(Cl)c(/C=N/N(C)C(=O)c2ccccc2)c1O",
    "readout_type": "Normalized Potentiation",
    "measurement": "175.53 ± 25.9%"
  },
  {
    "compound": "CCOc1cc(Cl)c(Cl)c(/C=N/NC(=O)c2cccc(Br)c2C)c1O",
    "readout_type": "Normalized Potentiation",
    "measurement": "441.11 ± 36.50%"
  },
  {
    "compound": "CCOc1cc(Br)c(Br)c(/C=N/NC(=O)c2ccccc2C)c1O [Npam04C]",
    "readout_type": "Normalized Potentiation",
    "measurement": "292.08 ± 44.70%"
  },
  {
    "compound": "Cc1ccccc1C(=O)N/N=C/c1cccc(O)c1O",
    "readout_type": "Normalized Potentiation",
    "measurement": "−12.47 ± 2.06%"
  },
  {
    "compound": "CCOc1cc(Cl)c(Cl)c(/C=N/NC(=O)c2ccc(C)cc2Cl)c1O",
    "readout_type": "Normalized Potentiation",
    "measurement": "443.25 ± 83.42%"
  },
  {
    "compound": "CCOc1cc(Br)c(Br)c(/C=N/NC(=O)c2cccc(Cl)c2C)c1O",
    "readout_type": "Normalized Potentiation",
    "measurement": "206.28 ± 33.62%"
  },
  {
    "compound": "CCOc1cc(Br)cc(/C=N/NC(=O)c2ccccc2Br)c1O",
    "readout_type": "Normalized Potentiation",
    "measurement": "163.60 ± 13.94%"
  },
  {
    "compound": "O=C(N/N=C/c1cccc(O)c1O)c1ccc(Cl)cc1Cl",
    "readout_type": "Normalized Potentiation",
    "measurement": "4.02 ± 4.79%"
  },
  {
    "compound": "COc1cc(Cl)cc(/C=N/NC(=O)c2ccccc2Br)c1O [Npam29]",
    "readout_type": "Normalized Potentiation",
    "measurement": "120.68 ± 9.61%"
  },
  {
    "compound": "CCOc1cc(/C=N/NC(=O)c2ccccc2Br)cc(Br)c1O",
    "readout_type": "Normalized Potentiation",
    "measurement": "−0.278 ± 5.62%"
  },
  {
    "compound": "CCOc1cc(Cl)c(Cl)c(/C=N/NC(=O)c2cccc(Br)c2)c1O",
    "readout_type": "Normalized Potentiation",
    "measurement": "374.58 ± 19.07%"
  },
  {
    "compound": "C=CCc1cc(/C=N/NC(=O)c2ccccc2Br)c(O)c(OC)c1",
    "readout_type": "Normalized Potentiation",
    "measurement": "97.62 ± 6.03%"
  },
  {
    "compound": "CCOc1cc(Cl)c(Cl)c(/C=N/NC(=O)c2ccccc2)c1O",
    "readout_type": "Normalized Potentiation",
    "measurement": "32.10 ± 3.02%"
  }
]

----------
# tested_target: NMDARs in cultured hippocampal neurons (Rattus norvegicus, UniProt P35439+Q00959)
# experiment_summary: Whole-cell voltage clamp recordings of NMDAR currents in cultured hippocampal/cortical neurons
# assay_context: cultured hippocampal neurons; FIG. 13; read-out: EC50 of NMDA dose-response curve
readout_type: EC50 (µM)

[
  {
    "compound": "CN[C@H](CC(=O)O)C(=O)O [NMDA, reference compound]",
    "readout_type": "EC50",
    "unit_abbreviation": "µM",
    "measurement": 30.5
  }
]

----------
# tested_target: GluN1/GluN2A NMDARs (Rattus norvegicus, UniProt P35439+Q00959)
# Construct: expressed in transfected cells; host or cells: HEK293
# experiment_summary: Whole-cell patch clamp recordings in HEK293 cells transfected with GluN1/GluN2A
# Assay type: cell-based
# assay_context: Table 1; positive modulation of GluN1/GluN2A NMDARs; concentration not given
readout_type: Normalized Potentiation (%)

[
  {
    "structure_string": "CCOc1cc(Br)cc(/C=N/NC(=O)c2ccccc2Cl)c1O",
    "tested_target": "GluN1/GluN2A NMDARs (Rattus norvegicus, UniProt P35439+Q00959)",
    "unit_abbreviation": "%",
    "measurement": 43.41
  },
  {
    "structure_string": "COc1cc(Br)c(Br)c(/C=N/NC(=O)c2ccc(Cl)cc2)c1O",
    "tested_target": "GluN1/GluN2A NMDARs (Rattus norvegicus, UniProt P35439+Q00959)",
    "unit_abbreviation": "%",
    "measurement": 195.38
  },
  {
    "structure_string": "COc1cc(/C=N/NC(=O)c2ccccc2Br)c(Br)c(Br)c1O",
    "tested_target": "GluN1/GluN2A NMDARs (Rattus norvegicus, UniProt P35439+Q00959)",
    "unit_abbreviation": "%",
    "measurement": 2.51
  },
  {
    "structure_string": "CCOc1cc(Br)cc(/C=N/NC(=O)c2ccc(F)cc2)c1O",
    "tested_target": "GluN1/GluN2A NMDARs (Rattus norvegicus, UniProt P35439+Q00959)",
    "unit_abbreviation": "%",
    "measurement": 59.83
  },
  {
    "structure_string": "CCOc1cc(Cl)c(Cl)c(/C=N/NC(=O)c2ccccc2Br)c1O",
    "tested_target": "GluN1/GluN2A NMDARs (Rattus norvegicus, UniProt P35439+Q00959)",
    "unit_abbreviation": "%",
    "measurement": 363.52
  },
  {
    "structure_string": "CCOc1cc(Cl)c(Cl)c(/C=N/NC(=O)c2ccccc2OC)c1O",
    "tested_target": "GluN1/GluN2A NMDARs (Rattus norvegicus, UniProt P35439+Q00959)",
    "unit_abbreviation": "%",
    "measurement": 110.23
  },
  {
    "structure_string": "CCOc1cc(Cl)c(Cl)c(/C=N/NC(=O)c2cc(Cl)ccc2Br)c1O",
    "tested_target": "GluN1/GluN2A NMDARs (Rattus norvegicus, UniProt P35439+Q00959)",
    "unit_abbreviation": "%",
    "measurement": 530.06
  },
  {
    "structure_string": "O=C(N/N=C/c1cccc(O)c1O)c1cccc(I)c1",
    "tested_target": "GluN1/GluN2A NMDARs (Rattus norvegicus, UniProt P35439+Q00959)",
    "unit_abbreviation": "%",
    "measurement": 3.99
  },
  {
    "structure_string": "CCOc1cc(Br)cc(/C=N/NC(=O)c2ccncc2)c1O",
    "tested_target": "GluN1/GluN2A NMDARs (Rattus norvegicus, UniProt P35439+Q00959)",
    "unit_abbreviation": "%",
    "measurement": 30.25
  },
  {
    "structure_string": "O=C(N/N=C/c1cccc(O)c1O)c1ccccc1",
    "tested_target": "GluN1/GluN2A NMDARs (Rattus norvegicus, UniProt P35439+Q00959)",
    "unit_abbreviation": "%",
    "measurement": 2.61
  },
  {
    "structure_string": "CCOc1cc(Cl)c(Cl)c(/C=N/NC(=O)c2cncc(Br)c2)c1O",
    "tested_target": "GluN1/GluN2A NMDARs (Rattus norvegicus, UniProt P35439+Q00959)",
    "unit_abbreviation": "%",
    "measurement": 201.19
  },
  {
    "structure_string": "CCOc1cccc(/C=N/NC(=O)c2cccc(Cl)c2C)c1O",
    "tested_target": "GluN1/GluN2A NMDARs (Rattus norvegicus, UniProt P35439+Q00959)",
    "unit_abbreviation": "%",
    "measurement": 103.77
  },
  {
    "structure_string": "CCOc1cc(Cl)c(Cl)c(/C=N/NC(=O)c2ccccc2C)c1O",
    "tested_target": "GluN1/GluN2A NMDARs (Rattus norvegicus, UniProt P35439+Q00959)",
    "unit_abbreviation": "%",
    "measurement": 130.54
  },
  {
    "structure_string": "CCOc1cc(Cl)c(Cl)c(/C=N/NC(=O)NC(=O)COc2c(C)ccc(C)c2C)c1O",
    "tested_target": "GluN1/GluN2A NMDARs (Rattus norvegicus, UniProt P35439+Q00959)",
    "unit_abbreviation": "%",
    "measurement": 362.76
  },
  {
    "structure_string": "COc1cc(Br)c(Br)c(/C=N/NC(=O)c2ccc(C(C)(C)C)cc2)c1O",
    "tested_target": "GluN1/GluN2A NMDARs (Rattus norvegicus, UniProt P35439+Q00959)",
    "unit_abbreviation": "%",
    "measurement": 512.24
  }
]
